Assay: Liver Microsome stability (In Vitro Metabolism)
Assay type: in vitro ADME
Conditions: Dog liver microsomes
Recorded metric: half-life at 1 µM

C[C@@H]1[C@H](O)[C@@H](C)/C=C/C=C/C=C/C=C/C=C/C=C/C=C/[C@H](OC2O[C@H](C)[C@@H](O)[C@H](N)[C@@H]2O)C[C@@H]2O[C@](O)(C[C@@H](O)C[C@@H](O)[C@H](O)CC[C@@H](O)C[C@@H](O)CC(=O)O[C@H]1C)C[C@H](O)[C@H]2C(=O)O (stereo partly shown) [AmB, Amphotericin B]: > 2.42 h

###

Assay: Liver Microsome stability (In Vitro Metabolism)
Type: in vitro ADME
Conditions: Dog liver microsomes
Recorded metric: microsomal CLint at 1 µM

C[C@@H]1[C@H](O)[C@@H](C)/C=C/C=C/C=C/C=C/C=C/C=C/C=C/[C@H](OC2O[C@H](C)[C@@H](O)[C@H](N)[C@@H]2O)C[C@@H]2O[C@](O)(C[C@@H](O)C[C@@H](O)[C@H](O)CC[C@@H](O)C[C@@H](O)CC(=O)O[C@H]1C)C[C@H](O)[C@H]2C(=O)O (stereo partly shown) [AmB, Amphotericin B]: < 9.6 µL/min/mg

###

Recorded Remaining (T = 60 min), one value per entry.
Assay: Liver Microsome stability (In Vitro Metabolism)
Assay type: in vitro ADME
Conditions: Monkey liver microsomes
Recorded metric: Remaining (T = 60 min) (%)

CC1C=CC=CC=CC=CC=CC=CC=CC(OC2OC(C)C(O)C(N)C2O)CC2OC(O)(CC(O)CC(O)C(O)CCC(O)CC(O)CC(=O)OC(C)C(C)C1O)CC(O)C2C(=O)NCCO (stereo not drawn) [Compound AA]: 113
CNC(=O)C1C(O)CC2(O)CC(O)CC(O)C(O)CCC(O)CC(O)CC(=O)OC(C)C(C)C(O)C(C)C=CC=CC=CC=CC=CC=CC=CC(OC3OC(C)C(O)C(N)C3O)CC1O2 (stereo not drawn): 139
C[C@@H]1[C@H](O)[C@@H](C)/C=C/C=C/C=C/C=C/C=C/C=C/C=C/[C@H](OC2O[C@H](C)[C@@H](O)[C@H](N)[C@@H]2O)C[C@@H]2O[C@](O)(C[C@@H](O)C[C@@H](O)[C@H](O)CC[C@@H](O)C[C@@H](O)CC(=O)O[C@H]1C)C[C@H](O)[C@H]2C(=O)O (stereo partly drawn): 142
CC1C=CC=CC=CC=CC=CC=CC=CC(OC2OC(C)C(O)C(N)C2O)CC2OC(O)(CC(O)CC(O)C(O)CCC(O)CC(O)CC(=O)OC(C)C(C)C1O)CC(O)C2C(=O)NCCN (stereo not drawn): 113
CC1C=CC=CC=CC=CC=CC=CC=CC(OC2OC(C)C(O)C(N)C2O)CC2OC(O)(CC(O)CC(O)C(O)CCC(O)CC(O)CC(=O)OC(C)C(C)C1O)CC(O)C2C(=O)NCCO (stereo not drawn) [Compound BA]: 108
COC(=O)C(Cc1c[nH]cn1)NC(=O)C1C(O)CC2(O)CC(O)CC(O)C(O)CCC(O)CC(O)CC(=O)OC(C)C(C)C(O)C(C)C=CC=CC=CC=CC=CC=CC=CC(OC3OC(C)C(O)C(N)C3O)CC1O2 (stereo not drawn): 107

###

Target: CYP2D6 (Homo sapiens)
Sequence (P10635 whole entry): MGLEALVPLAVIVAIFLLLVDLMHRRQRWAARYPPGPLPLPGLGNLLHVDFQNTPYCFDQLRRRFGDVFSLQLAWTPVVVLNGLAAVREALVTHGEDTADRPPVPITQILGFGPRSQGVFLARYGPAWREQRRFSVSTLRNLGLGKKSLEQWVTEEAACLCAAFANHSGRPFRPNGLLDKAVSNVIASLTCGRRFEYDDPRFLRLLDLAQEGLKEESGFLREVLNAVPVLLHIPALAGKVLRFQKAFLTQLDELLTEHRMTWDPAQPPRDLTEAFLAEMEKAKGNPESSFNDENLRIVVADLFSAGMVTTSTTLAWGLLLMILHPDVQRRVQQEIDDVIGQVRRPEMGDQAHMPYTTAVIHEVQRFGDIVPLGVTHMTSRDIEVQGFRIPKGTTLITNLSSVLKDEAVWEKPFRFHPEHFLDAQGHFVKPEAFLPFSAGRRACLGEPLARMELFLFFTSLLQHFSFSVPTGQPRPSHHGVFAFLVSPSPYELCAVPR
Test: CYP Inhibition
Settings: human, human liver microsomes, probe 5 in 1 substrate cocktail (substrates not named)
Method: The working solutions of the test compounds and the standard inhibitors were prepared in DMSO (100× final concentration). 20 ul of substrate solution (5 in 1 cocktail) was added to the wells followed by 2 ul test compound solution was added. 158 ul of human liver microsome (HLM) was added to all the wells of the incubated plate and warmed to 37° C. for 10 mins. […] 100 ul supernatant was diluted with 100 ul of ultra pure water and analyzed using LCMS.
Recorded metric: inhibition at 10 min, 10 µM (%)

C[C@@H]1[C@H](O)[C@@H](C)/C=C/C=C/C=C/C=C/C=C/C=C/C=C/[C@H](OC2O[C@H](C)[C@@H](O)[C@H](N)[C@@H]2O)C[C@@H]2O[C@](O)(C[C@@H](O)C[C@@H](O)[C@H](O)CC[C@@H](O)C[C@@H](O)CC(=O)O[C@H]1C)C[C@H](O)[C@H]2C(=O)O (stereo partly shown): 2.3

###

Test: Liver Microsome stability (In Vitro Metabolism)
Assay type: in vitro ADME
Conditions: Human liver microsomes
Recorded Remaining (T = 60 min), one value per entry.
Recorded metric: Remaining (T = 60 min) (%)

CC1C=CC=CC=CC=CC=CC=CC=CC(OC2OC(C)C(O)C(N)C2O)CC2OC(O)(CC(O)CC(O)C(O)CCC(O)CC(O)CC(=O)OC(C)C(C)C1O)CC(O)C2C(=O)NCCO (stereo not drawn) [Compound AA]: 111
COC(=O)C(Cc1c[nH]cn1)NC(=O)C1C(O)CC2(O)CC(O)CC(O)C(O)CCC(O)CC(O)CC(=O)OC(C)C(C)C(O)C(C)C=CC=CC=CC=CC=CC=CC=CC(OC3OC(C)C(O)C(N)C3O)CC1O2 (stereo not drawn) [AL]: 113
C[C@@H]1[C@H](O)[C@@H](C)/C=C/C=C/C=C/C=C/C=C/C=C/C=C/[C@H](OC2O[C@H](C)[C@@H](O)[C@H](N)[C@@H]2O)C[C@@H]2O[C@](O)(C[C@@H](O)C[C@@H](O)[C@H](O)CC[C@@H](O)C[C@@H](O)CC(=O)O[C@H]1C)C[C@H](O)[C@H]2C(=O)O (stereo partly drawn) [AmB, Amphotericin B]: 100
CC1C=CC=CC=CC=CC=CC=CC=CC(OC2OC(C)C(O)C(N)C2O)CC2OC(O)(CC(O)CC(O)C(O)CCC(O)CC(O)CC(=O)OC(C)C(C)C1O)CC(O)C2C(=O)NCCN (stereo not drawn) [AM]: 101
CC1C=CC=CC=CC=CC=CC=CC=CC(OC2OC(C)C(O)C(N)C2O)CC2OC(O)(CC(O)CC(O)C(O)CCC(O)CC(O)CC(=O)OC(C)C(C)C1O)CC(O)C2C(=O)NCCO (stereo not drawn) [Compound BA]: 99.9
CNC(=O)C1C(O)CC2(O)CC(O)CC(O)C(O)CCC(O)CC(O)CC(=O)OC(C)C(C)C(O)C(C)C=CC=CC=CC=CC=CC=CC=CC(OC3OC(C)C(O)C(N)C3O)CC1O2 (stereo not drawn) [AN]: 104

###

Assay: Liver Microsome stability (In Vitro Metabolism)
Assay type: in vitro ADME
Conditions: Rat liver microsomes
Recorded metric: half-life at 1 µM

C[C@@H]1[C@H](O)[C@@H](C)/C=C/C=C/C=C/C=C/C=C/C=C/C=C/[C@H](OC2O[C@H](C)[C@@H](O)[C@H](N)[C@@H]2O)C[C@@H]2O[C@](O)(C[C@@H](O)C[C@@H](O)[C@H](O)CC[C@@H](O)C[C@@H](O)CC(=O)O[C@H]1C)C[C@H](O)[C@H]2C(=O)O (stereo partly shown): > 2.42 h

###

Tested on: C. tropicalis
Experiment: MIC
Format: cell-based
Recorded metric: MIC C. tropicalis

CC1C=CC=CC=CC=CC=CC=CC=CC(OC2OC(C)C(O)C(N)C2O)CC2OC(O)(CC(O)CC(O)C(O)CCC(O)CC(O)CC(=O)OC(C)C(C)C1O)CC(O)C2C(=O)NC1CC1 (stereo not drawn) [BD]: 0.5 µM
CC(CO)NC(=O)C1C(O)CC2(O)CC(O)CC(O)C(O)CCC(O)CC(O)CC(=O)OC(C)C(C)C(O)C(C)C=CC=CC=CC=CC=CC=CC=CC(OC3OC(C)C(O)C(N)C3O)CC1O2 (stereo not drawn): 0.35 µM
CC1C=CC=CC=CC=CC=CC=CC=CC(OC2OC(C)C(O)C(N)C2O)CC2OC(O)(CC(O)CC(O)C(O)CCC(O)CC(O)CC(=O)OC(C)C(C)C1O)CC(O)C2C(=O)NC1CCC1 (stereo not drawn) [AR4]: 500 µM
CC(O)CNC(=O)C1C(O)CC2(O)CC(O)CC(O)C(O)CCC(O)CC(O)CC(=O)OC(C)C(C)C(O)C(C)C=CC=CC=CC=CC=CC=CC=CC(OC3OC(C)C(O)C(N)C3O)CC1O2 (stereo not drawn): 0.45 µM
CC1C=CC=CC=CC=CC=CC=CC=CC(OC2OC(C)C(O)C(N)C2O)CC2OC(O)(CC(O)CC(O)C(O)CCC(O)CC(O)CC(=O)OC(C)C(C)C1O)CC(O)C2C(=O)NCCC#N (stereo not drawn): 500 µM
COCCNC(=O)C1C(O)CC2(O)CC(O)CC(O)C(O)CCC(O)CC(O)CC(=O)OC(C)C(C)C(O)C(C)C=CC=CC=CC=CC=CC=CC=CC(OC3OC(C)C(O)C(N)C3O)CC1O2 (stereo not drawn): 0.4 µM
CC1C=CC=CC=CC=CC=CC=CC=CC(OC2OC(C)C(O)C(N)C2O)CC2OC(O)(CC(O)CC(O)C(O)CCC(O)CC(O)CC(=O)OC(C)C(C)C1O)CC(O)C2C(=O)NCCS (stereo not drawn): 0.45 µM
CC1C=CC=CC=CC=CC=CC=CC=CC(OC2OC(C)C(O)C(N)C2O)CC2OC(O)(CC(O)CC(O)C(O)CCC(O)CC(O)CC(=O)OC(C)C(C)C1O)CC(O)C2C(=O)NC1CCCC1 (stereo not drawn): 500 µM
CC1C=CC=CC=CC=CC=CC=CC=CC(OC2OC(C)C(O)C(N)C2O)CC2OC(O)(CC(O)CC(O)C(O)CCC(O)CC(O)CC(=O)OC(C)C(C)C1O)CC(O)C2C(=O)NC1CC1 (stereo not drawn) [AR3]: 250 µM
CC1C=CC=CC=CC=CC=CC=CC=CC(OC2OC(C)C(O)C(N)C2O)CC2OC(O)(CC(O)CC(O)C(O)CCC(O)CC(O)CC(=O)OC(C)C(C)C1O)CC(O)C2C(=O)NC1CCC1 (stereo not drawn) [BE]: 1 µM
CC1C=CC=CC=CC=CC=CC=CC=CC(OC2OC(C)C(O)C(N)C2O)CC2OC(O)(CC(O)CC(O)C(O)CCC(O)CC(O)CC(=O)OC(C)C(C)C1O)CC(O)C2C(=O)NC1COCC1O (stereo not drawn): 500 µM
CC1C=CC=CC=CC=CC=CC=CC=CC(OC2OC(C)C(O)C(N)C2O)CC2OC(O)(CC(O)CC(O)C(O)CCC(O)CC(O)CC(=O)OC(C)C(C)C1O)CC(O)C2C(=O)NCCN (stereo not drawn): 0.5 µM
CC1C=CC=CC=CC=CC=CC=CC=CC(OC2OC(C)C(O)C(N)C2O)CC2OC(O)(CC(O)CC(O)C(O)CCC(O)CC(O)CC(=O)OC(C)C(C)C1O)CC(O)C2C(=O)NC1CCCCC1 (stereo not drawn): 500 µM
CC1C=CC=CC=CC=CC=CC=CC=CC(OC2OC(C)C(O)C(N)C2O)CC2OC(O)(CC(O)CC(O)C(O)CCC(O)CC(O)CC(=O)OC(C)C(C)C1O)CC(O)C2C(=O)NCC(O)CO (stereo not drawn) [AK]: 0.3 µM
CC1C=CC=CC=CC=CC=CC=CC=CC(OC2OC(C)C(O)C(N)C2O)CC2OC(O)(CC(O)CC(O)C(O)CCC(O)CC(O)CC(=O)OC(C)C(C)C1O)CC(O)C2C(=O)NCC(O)CO (mixture of isomers) [AJ]: 0.2 µM
CCC(CO)NC(=O)C1C(O)CC2(O)CC(O)CC(O)C(O)CCC(O)CC(O)CC(=O)OC(C)C(C)C(O)C(C)C=CC=CC=CC=CC=CC=CC=CC(OC3OC(C)C(O)C(N)C3O)CC1O2 (stereo not drawn): 0.4 µM
CC1C=CC=CC=CC=CC=CC=CC=CC(OC2OC(C)C(O)C(N)C2O)CC2OC(O)(CC(O)CC(O)C(O)CCC(O)CC(O)CC(=O)OC(C)C(C)C1O)CC(O)C2C(=O)NC(CO)C(C)(C)C (stereo not drawn): 0.75 µM
CNC(=O)C1C(O)CC2(O)CC(O)CC(O)C(O)CCC(O)CC(O)CC(=O)OC(C)C(C)C(O)C(C)C=CC=CC=CC=CC=CC=CC=CC(OC3OC(C)C(O)C(N)C3O)CC1O2 (stereo not drawn): 0.5 µM
